assay: NCI Yeast Anticancer Drug Screen. Data for the cln2 rad14 strain (AID 165);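 also: 0% = growth equal to vehicle treated cultures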; settings: S. cerevisiae cln2 rad14 strain, at 50.0 µM
This is part of a sample that, as a whole, favours compounds with a hit. Of some 79,000 tested, about 15% had one in any assay. Active and inactive are the calls of the source. Rule as the data show it: active = growth inhibition above about 70%; inactive = the rest.
Respond with a class label; see 1 for active, -1 for inactive

The following compounds have reported results that may help.
1) CCCCCCCCCCC/C=N\[N+](C)(C)C = 1
2) COC(=O)c1cccc2c1-c1ccccc1C2=O = -1
3) C(/C=C/c1ccccc1)=Nc1ccc2c(c1)Cc1ccccc1-2 = -1
4) Cc1cc2ncn(C3OC(CO)C(O)C3O)c2cc1C (stereo unspecified) = -1
5) CC(N)CCC(=O)O (stereo unspecified) = -1

// switching to the query compound
Qu. What classification did O=C1OCC2CC1C(=O)O2 (stereo unspecified) end up with in this test?
Ans. -1

Where these numbers come from: PubChem BioAssay (NCI)
